# System: four HNSCC cell lines (CAL33, FADU, 686 LN, OSC19)
# assay details: Anti-proliferative activity in panel of HNSCC cell lines
# Type: cell-based
# measurement setup: read-out: anti-proliferative activity
// values below are reported IC50

[
  {
    "molecule": "CC1=CC(C)(C)N=C(Nc2nc(C)c3cc(C)ccc3n2)N1 [11b]",
    "IC50": "1 to 50 µM"
  },
  {
    "molecule": "CC1=CC(C)(C)N=C(Nc2nc(C)c3cc(C)cc(C)c3n2)N1 [11c]",
    "IC50": "1 to 50 µM"
  }
]

Just for reference, paper PMC4250329 is where these values come from.
